These data points were gathered from patent US8173645B2.

Molecular target: glucokinase (GK), residues 12-465 of the human enzyme (Homo sapiens, UniProt P35557)
Construct: I.D. No. 1 corresponds to residues 12-465 of glucokinase; made in house; host or cells: E. coli DH10b-Tlr
Assay: Enzymatic glucokinase activity assay (KinaseGlo luminescence, ATP consumption)
Assay type: biochemical
Conditions: calculated maximal gain in GK enzyme activity at a saturating concentration of the compound; 5 μM ATP, 5 mM Glucose; read-out: % ACTmax
reported property: Emax

The following compounds have reported results that may help.
Cn1ccc(S(=O)(=O)N2CCN([C@@H](CC3CCCCC3)C(=O)Nc3nccs3)C(=O)C2)n1 [Example 112]: 108 to 119%
N#Cc1ccc(NC(=O)N2CCN([C@@H](CC3CCCCC3)C(=O)Nc3nccs3)C(=O)C2)cc1 [Example 132]: ≤ 74%
O=C(O)c1cccc(S(=O)(=O)N2CCN([C@@H](CC3CCCCC3)C(=O)Nc3nccs3)C(=O)C2)c1 [Example 49]: 74.1 to 97%

Now for another entry.
Look up Emax of O=C(Nc1ncc(Cl)s1)[C@H](CC1CCOCC1)N1CCN(S(=O)(=O)C2CC2)CC1=O [Example 24] and report it.
≥ 119%

====

Molecular target: glucokinase (GK), residues 12-465 of the human enzyme (Homo sapiens, UniProt P35557)
Construct: I.D. No. 1 corresponds to residues 12-465 of glucokinase; made in house; host or cells: E. coli DH10b-Tlr
Experiment: Enzymatic glucokinase activity assay (KinaseGlo luminescence, ATP consumption)
Type: biochemical
Details: calculated maximal gain in GK enzyme activity at a saturating concentration of the compound; 5 μM ATP, 5 mM Glucose; read-out: % ACTmax
reported property: Emax

O=C(Nc1nccs1)[C@H](CC1CCCCC1)N1CCN(C(=S)Nc2ccc(Cl)cc2)CC1=O: 97.1 to 107%
O=C(Nc1ncc(Cl)s1)C(CC1CCOCC1)N1CCN(S(=O)(=O)c2ccc(F)cc2)CC1=O (stereo not drawn): ≥ 119%
O=C(Nc1nccs1)[C@H](CC1CCCCC1)N1CCN(S(=O)(=O)CCC(F)(F)F)CC1=O: ≥ 119%
O=C(Nc1nccs1)[C@H](CC1CCCCC1)N1CCN(S(=O)(=O)c2ccc(-c3nsc(Cl)n3)s2)CC1=O: ≤ 74%
CC(=O)N1CCC(CC(C(=O)Nc2nccs2)N2CCN(S(=O)(=O)C3CC3)CC2=O)C1 (stereo not drawn): 108 to 119%

Look up Emax of O=C(Nc1nccs1)[C@H](CC1CCCCC1)N1CCN(C(=O)Nc2ccc(Cl)c(Cl)c2)CC1=O and report it.
≤ 74%

Look up Emax of O=C(Nc1nccs1)[C@H](CC1CCCCC1)N1CCN(S(=O)(=O)c2cccc(Cl)c2F)CC1=O and report it.
≥ 119%

Look up Emax of O=C(Nc1nccs1)[C@H](CC1CCCCC1)N1CCN(S(=O)(=O)c2ccc(F)c(F)c2)CC1=O and report it.
108 to 119%

Look up Emax of Cc1ccc2sc(S(=O)(=O)N3CCN([C@@H](CC4CCCCC4)C(=O)Nc4nccs4)C(=O)C3)cc2c1 and report it.
≤ 74%

Look up Emax of COc1ccc(NC(=S)N2CCN([C@@H](CC3CCCCC3)C(=O)Nc3nccs3)C(=O)C2)cc1 and report it.
97.1 to 107%

Look up Emax of O=C(Nc1nccs1)[C@H](CC1CCCCC1)N1CCN(S(=O)(=O)C2CC2)CC1=O and report it.
108 to 119%

Look up Emax of COc1ccc(C)cc1S(=O)(=O)N1CCN([C@@H](CC2CCCCC2)C(=O)Nc2nccs2)C(=O)C1 and report it.
≥ 119%

Look up Emax of COc1ccc(CCNC(=O)N2CCN([C@@H](CC3CCCCC3)C(=O)Nc3nccs3)C(=O)C2)cc1OC and report it.
≥ 119%

Look up Emax of CC(=O)c1cccc(S(=O)(=O)N2CCN([C@@H](CC3CCCCC3)C(=O)Nc3nccs3)C(=O)C2)c1 and report it.
97.1 to 107%

Look up Emax of O=C(Nc1ncc(Cl)s1)[C@H](CC1CCOCC1)N1CCN(S(=O)(=O)c2cccc(F)c2)CC1=O and report it.
108 to 119%

Look up Emax of O=C(Nc1nccs1)[C@H](CC1CCCCC1)N1CCN(S(=O)(=O)CC(F)(F)F)CC1=O and report it.
≥ 119%

Look up Emax of O=C(Nc1ncc(Cl)s1)C(CC1CCOCC1)N1CCN(S(=O)(=O)C2CC2)CC1=O (stereo not drawn) and report it.
≥ 119%

====

Biological target: glucokinase (GK), residues 12-465 of the human enzyme (Homo sapiens)
Construct: I.D. No. 1 corresponds to residues 12-465 of glucokinase; made in house; host or cells: E. coli DH10b-Tlr
Sequence (P35557 with tags, fused parts or gaps isoform P35557-2): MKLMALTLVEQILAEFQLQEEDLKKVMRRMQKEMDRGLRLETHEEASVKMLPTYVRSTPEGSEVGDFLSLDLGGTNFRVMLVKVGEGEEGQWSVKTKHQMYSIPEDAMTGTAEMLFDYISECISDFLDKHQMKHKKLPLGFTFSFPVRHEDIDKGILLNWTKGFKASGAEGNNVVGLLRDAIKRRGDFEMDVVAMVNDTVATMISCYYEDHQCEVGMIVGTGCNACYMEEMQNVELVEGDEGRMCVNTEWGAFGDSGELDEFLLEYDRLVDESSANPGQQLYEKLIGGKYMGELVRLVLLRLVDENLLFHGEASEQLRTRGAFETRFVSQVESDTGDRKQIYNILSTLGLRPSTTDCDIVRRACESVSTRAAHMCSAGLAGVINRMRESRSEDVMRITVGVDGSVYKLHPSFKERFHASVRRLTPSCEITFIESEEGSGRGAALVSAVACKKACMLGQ
Assay: Enzymatic glucokinase activity assay (KinaseGlo luminescence, ATP consumption)
Assay type: biochemical
Conditions: calculated maximal gain in GK enzyme activity at a saturating concentration of the compound; 5 μM ATP, 5 mM Glucose; read-out: % ACTmax
reported property: Emax

The following compounds have reported results that may help.
O=C(Nc1nccs1)[C@H](CC1CCCCC1)N1CCN(S(=O)(=O)c2csc3ccccc23)CC1=O: ≤ 74%
COC(=O)c1cc(S(=O)(=O)N2CCN([C@@H](CC3CCCCC3)C(=O)Nc3nccs3)C(=O)C2)oc1C: 97.1 to 107%

Look up Emax of O=C(Nc1nccs1)[C@H](CC1CCCCC1)N1CCN(S(=O)(=O)c2ccc(Br)c(Br)c2)CC1=O and report it.
≤ 74%

Look up Emax of O=C(Nc1nccs1)[C@H](CC1CCCCC1)N1CCN(C(=S)Nc2ccc(Oc3ccccc3)cc2)CC1=O and report it.
≤ 74%

Look up Emax of O=C(Nc1nccs1)[C@H](CC1CCCCC1)N1CCN(C(=S)NCCN2CCOCC2)CC1=O and report it.
97.1 to 107%

Look up Emax of O=C(Nc1nccs1)[C@H](CC1CCCCC1)N1CCN(C(=O)NCc2ccc(Cl)cc2)CC1=O and report it.
≤ 74%

Look up Emax of COc1ccc(OC)c(S(=O)(=O)N2CCN([C@@H](CC3CCCCC3)C(=O)Nc3nccs3)C(=O)C2)c1 and report it.
108 to 119%

Look up Emax of COc1ccc(Oc2cccc(S(=O)(=O)N3CCN([C@@H](CC4CCCCC4)C(=O)Nc4nccs4)C(=O)C3)c2)cc1 and report it.
≤ 74%

Look up Emax of N#Cc1ccc(S(=O)(=O)N2CCN([C@@H](CC3CCCCC3)C(=O)Nc3nccs3)C(=O)C2)c(Cl)c1 and report it.
74.1 to 97%

====

Biological target: glucokinase (GK), residues 12-465 of the human enzyme (Homo sapiens, UniProt P35557)
Construct: I.D. No. 1 corresponds to residues 12-465 of glucokinase; made in house; host or cells: E. coli DH10b-Tlr
Assay: Enzymatic glucokinase activity assay (KinaseGlo luminescence, ATP consumption)
Type: biochemical
Settings: GK activation; 5 μM ATP, 5 mM Glucose; Kact = concentration giving 50% of the maximal increase in GK activity; read-out: pKact
EC50 listing for selected molecules.

O=C(Nc1nccs1)[C@H](CC1CCCCC1)N1CCN(C(=S)Nc2ccc(Cl)c(Cl)c2)CC1=O [Example 87]: ≥ 3160 nM
Cc1cccc(S(=O)(=O)N2CCN([C@@H](CC3CCCCC3)C(=O)Nc3nccs3)C(=O)C2)c1 [Example 192]: ≤ 631 nM

Look up EC50 of O=C(Nc1nccs1)[C@H](CC1CCCCC1)N1CCN(C(=O)Nc2ccc(Cl)c(Cl)c2)CC1=O [Example 131] and report it.
≥ 3160 nM

Look up EC50 of O=C(Nc1nccs1)[C@H](CC1CCCCC1)N1CCN(S(=O)(=O)c2cc(Cl)c(Cl)s2)CC1=O [Example 170] and report it.
≤ 631 nM

Look up EC50 of O=C(Nc1nccs1)[C@H](CC1CCCCC1)N1CCN(C(=S)NC2CC2)CC1=O [Example 129] and report it.
1580 to 2510 nM

Look up EC50 of O=C(Nc1nccs1)[C@H](CC1CCCCC1)N1CCN(C(=S)NCCN2CCCCC2)CC1=O [Example 121] and report it.
≤ 631 nM

Look up EC50 of CC(C)(C)c1ccc(S(=O)(=O)N2CCN([C@@H](CC3CCCCC3)C(=O)Nc3nccs3)C(=O)C2)cc1 [Example 224] and report it.
794 to 1260 nM
